target: human β3 adrenergic receptor (Homo sapiens); construct: expressed in transfected cells; host or cells: Chinese hamster ovary (CHO) cells, stably transfected; assay: Functional assay: cAMP production (LANCE TR-FRET) in CHO cells stably transfected with cloned β3 adrenergic receptor; assay type: cell-based; details: given as a range; cAMP, CHO cells; read-out: human β3 functional activity
pEC50: −log10 of the molar value.

# MOLECULE, pEC50
data = [
    ("O=S(=O)(Nc1ccc(C[C@@H]2CC[C@H]([C@H](O)c3ccccc3)N2)cc1)c1ccc(-c2nc(-c3ccc(C(F)(F)F)cc3)cs2)cc1", "8.00 to 9.00"),
    ("C[C@H](NS(=O)(=O)c1ccc(F)cc1)C(=O)Nc1ccc(C[C@@H]2CC[C@H]([C@H](O)c3ccccc3)N2)cc1", "7.00 to 7.96"),
    ("CC(C(=O)Nc1ccc(C[C@@H]2CC[C@H]([C@H](O)c3cccc(F)c3)N2)cc1)c1cscn1 (single isomer, unassigned) [Example 275]", "> 9.00"),
    ("Nc1nc2c(s1)CCC2C(=O)Nc1ccc(C[C@@H]2CC[C@H]([C@H](O)c3ccccc3)N2)cc1 (single isomer, unassigned)", "> 9.00"),
    ("CC(C(=O)Nc1ccc(C[C@@H]2CC[C@H]([C@H](O)c3cccc(F)c3)N2)cc1)c1cscn1 (single isomer, unassigned) [Example 274]", "7.00 to 7.96"),
    ("Nc1nc(CC(=O)Nc2ccc(C[C@H]3CC[C@H]([C@H](O)c4ccccc4)N3)cc2Br)cs1", "6.00 to 7.00"),
]

====

EC50 values for the compounds below.
molecular target: human β3 adrenergic receptor (Homo sapiens, UniProt P13945); construct: expressed in transfected cells; host or cells: Chinese hamster ovary (CHO) cells, stably transfected; experiment: Functional assay: cAMP production (LANCE TR-FRET) in CHO cells stably transfected with cloned β3 adrenergic receptor; type: cell-based; conditions: Table 5; read-out: Human β3 Functional
Sequence (P13945 whole entry): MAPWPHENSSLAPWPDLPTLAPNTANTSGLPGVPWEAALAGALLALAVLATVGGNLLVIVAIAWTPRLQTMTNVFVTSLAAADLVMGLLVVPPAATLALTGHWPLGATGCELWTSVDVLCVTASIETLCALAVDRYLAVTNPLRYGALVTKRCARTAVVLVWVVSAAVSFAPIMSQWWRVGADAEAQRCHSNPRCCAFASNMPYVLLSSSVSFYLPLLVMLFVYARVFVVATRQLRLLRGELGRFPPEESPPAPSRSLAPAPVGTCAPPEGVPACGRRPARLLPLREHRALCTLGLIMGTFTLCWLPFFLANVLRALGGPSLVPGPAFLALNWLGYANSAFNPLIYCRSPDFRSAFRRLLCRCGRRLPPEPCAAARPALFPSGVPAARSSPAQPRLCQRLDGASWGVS
MEASUREMENT NAME: EC50

# COMPOUND, RESULT
data = [
    ("O=C(Nc1ccc(C[C@@H]2CC[C@H]([C@H](O)c3ccccc3)N2)cc1)C1CCCc2ccnn21 (single isomer, unassigned) [Example 157]", "0.011 to 0.1 µM"),
    ("O=C(Nc1ccc(C[C@@H]2CC[C@H]([C@H](O)c3ccccc3)N2)cc1)C1CCc2ccccc2C1 (single isomer, unassigned) [Example 108]", "0.101 to 1 µM"),
    ("CC(C(=O)Nc1ccc(C[C@@H]2CC[C@H]([C@H](O)c3ccccc3)N2)cc1)n1ccnn1 (single isomer, unassigned) [Example 182]", "0.011 to 0.1 µM"),
    ("Cc1n[nH]c2c1CCC2C(=O)Nc1ccc(C[C@@H]2CC[C@H]([C@H](O)c3ccccc3)N2)cc1 (single isomer, unassigned) [Example 139]", "0.001 to 0.01 µM"),
    ("CC(C(=O)Nc1ccc(C[C@@H]2CC[C@H]([C@H](O)c3ccccc3)N2)cc1)n1cc(C(=O)O)nn1 (single isomer, unassigned) [Example 191]", "0.011 to 0.1 µM"),
    ("O=C(Nc1ccc(C[C@@H]2CC[C@H]([C@H](O)c3ccccc3)N2)cc1)C1CCn2nnnc21 (single isomer, unassigned) [Example 131]", "0.001 to 0.01 µM"),
    ("CC(C(=O)Nc1ccc(C[C@@H]2CC[C@H]([C@H](O)c3ccccc3)N2)cc1)n1cc(C(N)=O)nn1 (single isomer, unassigned) [Example 192]", "0.001 to 0.01 µM"),
    ("CC(C(=O)Nc1ccc(C[C@@H]2CC[C@H]([C@H](O)c3ccccc3)N2)cc1)n1ccccc1=O (single isomer, unassigned)", "0.001 to 0.01 µM"),
    ("O=C(Nc1ccc(C[C@@H]2CC[C@H]([C@H](O)c3ccccc3)N2)cc1)C1CCc2ncnn21 (single isomer, unassigned) [Example 128]", "0.011 to 0.1 µM"),
    ("CC(C(=O)Nc1ccc(C[C@@H]2CC[C@H]([C@H](O)c3ccccc3)N2)cc1)n1cc(C(N)=O)nn1 (single isomer, unassigned) [Example 193]", "0.011 to 0.1 µM"),
    ("CCC(C(=O)Nc1ccc(C[C@@H]2CC[C@H]([C@H](O)c3ccccc3)N2)cc1)n1cccn1 (single isomer, unassigned) [Example 218]", "0.001 to 0.01 µM"),
    ("COC(=O)c1cn(C(C)C(=O)Nc2ccc(C[C@@H]3CC[C@H]([C@H](O)c4ccccc4)N3)cc2)nn1 (single isomer, unassigned) [Example 188]", "0.001 to 0.01 µM"),
]

====

molecular target: human β3 adrenergic receptor (Homo sapiens, UniProt P13945); construct: expressed in transfected cells; host or cells: Chinese hamster ovary (CHO) cells, stably transfected; assay: Functional assay: cAMP production (LANCE TR-FRET) in CHO cells stably transfected with cloned β3 adrenergic receptor; type: cell-based; settings: Table 4; human β3 functional activity; read-out: Human β Binding
EC50 values for the molecules below.

# MOLECULE, SYSTEM TESTED, EC50
measured = [
    ("O=C(CN1CCCC1=O)Nc1ccc(C[C@@H]2CC[C@H]([C@H](O)c3ccccc3)N2)cc1", "human β3 adrenergic receptor (Homo sapiens, UniProt P13945)", "1 to 10 nM"),
    ("O=C(Nc1ccc(C[C@@H]2CC[C@H]([C@H](O)c3ccccc3)N2)cc1)C1CCCN1c1nccs1 (stereo partly shown)", "human β3 adrenergic receptor (Homo sapiens, UniProt P13945)", "1 to 10 nM"),
    ("O=C(Cc1ccccn1)Nc1ccc(C[C@@H]2CC[C@H]([C@H](O)c3ccccc3)N2)cc1", "human β3 adrenergic receptor (Homo sapiens, UniProt P13945)", "11 to 100 nM"),
    ("O=C(Cc1nnc(-c2ccc(Cl)cc2)[nH]1)Nc1ccc(C[C@@H]2CC[C@H]([C@H](O)c3ccccc3)N2)cc1", "human β3 adrenergic receptor (Homo sapiens, UniProt P13945)", "11 to 100 nM"),
    ("O=C(Cc1nnc(-c2cc(Cl)cc(Cl)c2)[nH]1)Nc1ccc(C[C@@H]2CC[C@H]([C@H](O)c3ccccc3)N2)cc1", "human β3 adrenergic receptor (Homo sapiens, UniProt P13945)", "101 to 1000 nM"),
    ("O=C(Cn1ncccc1=O)Nc1ccc(C[C@@H]2CC[C@H]([C@H](O)c3ccccc3)N2)cc1", "human β3 adrenergic receptor (Homo sapiens, UniProt P13945)", "1 to 10 nM"),
    ("CN1CCCN(CC(=O)Nc2ccc(C[C@@H]3CC[C@H]([C@H](O)c4ccccc4)N3)cc2)C1=O", "human β3 adrenergic receptor (Homo sapiens, UniProt P13945)", "11 to 100 nM"),
]

====

EC50 values for the molecules below.
biological target: human β3 adrenergic receptor (Homo sapiens, UniProt P13945); construct: expressed in transfected cells; host or cells: Chinese hamster ovary (CHO) cells, stably transfected; test: Functional assay: cAMP production (LANCE TR-FRET) in CHO cells stably transfected with cloned β3 adrenergic receptor; type: cell-based; details: Table 5; read-out: Human β3 Functional

# MOLECULE, EC50
records = [
    ("CC(C(=O)Nc1ccc(C[C@@H]2CC[C@H]([C@H](O)c3ccccc3)N2)cc1)n1cccnc1=O (single isomer, unassigned) [Example 160]", "1 to 10 nM"),
    ("Cc1nnc2n1CCCC2C(=O)Nc1ccc(C[C@@H]2CC[C@H]([C@H](O)c3ccccc3)N2)cc1 (single isomer, unassigned) [Example 151]", "1 to 10 nM"),
    ("CC(C(=O)Nc1ccc(C[C@@H]2CC[C@H]([C@H](O)c3ccccc3)N2)cc1)c1cnccn1 (single isomer, unassigned) [Example 206]", "1 to 10 nM"),
    ("CC(C(=O)Nc1ccc(C[C@@H]2CC[C@H]([C@H](O)c3ccccc3)N2)cc1)n1nncc1C(=O)O (single isomer, unassigned) [Example 197]", "1 to 10 nM"),
    ("O=C(Nc1ccc(C[C@@H]2CC[C@H]([C@H](O)c3ccccc3)N2)cc1)C1CCCc2ccccc21 (single isomer, unassigned) [Example 113]", "101 to 1000 nM"),
    ("Cc1nnc2n1C(C(=O)Nc1ccc(C[C@@H]3CC[C@H]([C@H](O)c4ccccc4)N3)cc1)CC2 (single isomer, unassigned) [Example 127]", "101 to 1000 nM"),
    ("O=C(Nc1ccc(C[C@@H]2CC[C@H]([C@H](O)c3ccccc3)N2)cc1)C1CCc2sc(-c3ccc(F)cc3)nc21 (single isomer, unassigned) [Example 122]", "101 to 1000 nM"),
    ("O=C(Nc1ccc(C[C@@H]2CC[C@H]([C@H](O)c3ccccc3)N2)cc1)C1CCCn2nnnc21 (single isomer, unassigned) [Example 152]", "11 to 100 nM"),
    ("CC(C(=O)Nc1ccc(C[C@@H]2CC[C@H]([C@H](O)c3ccccc3)N2)cc1)n1ncccc1=O (single isomer, unassigned)", "1 to 10 nM"),
    ("O=C(Nc1ccc(C[C@@H]2CC[C@H]([C@H](O)c3ccccc3)N2)cc1)C1CCc2ccccc21 (single isomer, unassigned) [Example 111]", "101 to 1000 nM"),
    ("CCC(C(=O)Nc1ccc(C[C@@H]2CC[C@H]([C@H](O)c3ccccc3)N2)cc1)n1nccn1 (single isomer, unassigned) [Example 216]", "1 to 10 nM"),
    ("CC(Oc1cccnn1)C(=O)Nc1ccc(C[C@@H]2CC[C@H]([C@H](O)c3ccccc3)N2)cc1 (single isomer, unassigned) [Example 215]", "11 to 100 nM"),
    ("O=C(Nc1ccc(C[C@@H]2CC[C@H]([C@H](O)c3ccccc3)N2)cc1)C1CCc2ccc(=O)[nH]c21 (single isomer, unassigned) [Example 135]", "101 to 1000 nM"),
    ("O=C(Nc1ccc(C[C@@H]2CC[C@H]([C@H](O)c3ccccc3)N2)cc1)C1CCc2cn[nH]c21 (single isomer, unassigned) [Example 136]", "11 to 100 nM"),
    ("CC(C(=O)Nc1ccc(C[C@@H]2CC[C@H]([C@H](O)c3ccccc3)N2)cc1)N1CCOC1=O (single isomer, unassigned) [Example 209]", "11 to 100 nM"),
    ("O=C(Nc1ccc(C[C@@H]2CC[C@H]([C@H](O)c3ccccc3)N2)cc1)C1CCc2sc(Br)nc21 (single isomer, unassigned) [Example 145]", "< 1 nM"),
    ("COC(=O)c1cnnn1C(C)C(=O)Nc1ccc(C[C@@H]2CC[C@H]([C@H](O)c3ccccc3)N2)cc1 (single isomer, unassigned) [Example 194]", "11 to 100 nM"),
    ("O=C(O)c1nc2c(s1)CCC2C(=O)Nc1ccc(C[C@@H]2CC[C@H]([C@H](O)c3ccccc3)N2)cc1 (single isomer, unassigned) [Example 143]", "11 to 100 nM"),
    ("CC(C(=O)Nc1ccc(C[C@@H]2CC[C@H]([C@H](O)c3ccccc3)N2)cc1)n1nccn1 (single isomer, unassigned) [Example 179]", "1 to 10 nM"),
    ("Cc1nc2c(s1)CCC2C(=O)Nc1ccc(C[C@@H]2CC[C@H]([C@H](O)c3ccccc3)N2)cc1 (single isomer, unassigned) [Example 119]", "< 1 nM"),
    ("Cc1nnc2n1CCC2C(=O)Nc1ccc(C[C@@H]2CC[C@H]([C@H](O)c3ccccc3)N2)cc1 (single isomer, unassigned) [Example 124]", "1 to 10 nM"),
    ("Cc1cc(C(C)C(=O)Nc2ccc(C[C@@H]3CC[C@H]([C@H](O)c4ccccc4)N3)cc2)[nH]n1 (single isomer, unassigned) [Example 185]", "1 to 10 nM"),
    ("Nc1nc2c(s1)CCCC2C(=O)Nc1ccc(C[C@@H]2CC[C@H]([C@H](O)c3ccccc3)N2)cc1 (single isomer, unassigned) [Example 116]", "1 to 10 nM"),
]
